Target: Biotin QP004.3 (biotin-PDL1-FC) (human) (UniProt Q9NZQ7)
Sequence (Q9NZQ7 19-238 limits assumed): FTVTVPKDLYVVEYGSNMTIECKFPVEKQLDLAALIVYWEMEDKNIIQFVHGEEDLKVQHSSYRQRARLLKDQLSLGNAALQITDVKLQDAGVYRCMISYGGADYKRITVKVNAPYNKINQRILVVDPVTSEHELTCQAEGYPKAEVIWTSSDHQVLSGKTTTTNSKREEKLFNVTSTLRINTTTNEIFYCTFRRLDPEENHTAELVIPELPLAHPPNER
Experiment: binding ELISA, antibody coated, biotin-PDL1-FC titrated
quantity-name: ELISA reading at 0.0007 µg/ml biotin-PDL1-FC
One number for each entry.

Solved entries:
QP1166 (Fc fusion, not shown: a dimerising Fc or GST) QVQLVESGGDSVQPGGSLRLSCAASGFTYGTYAMSWFRQAPGKEREGVACIDIYGRTSYTDPVKGRFTISQDNAKNTLYLQMNSLKPEDTAMYYCAARDFGYCTASWVHEGFSRYWGQGTQVTVSS    0.217
QP320 (Fc fusion, not shown: a dimerising Fc or GST) EVQLLESGGGLVQPGGSLRLSCAASGFTYGTYAMSWVRQAPGKGLEWVSCIDIYGRASYTDPVKGRFTISRDNSKNTLYLQMNSLRAEDTAVYYCAARDFGYCTASWVHEGFSRYWGQGTLVTVSS    0.125

Could you tell me ELISA reading at 0.0007 µg/ml biotin-PDL1-FC for each of these binders? They are listed below.
1. QP325 (Fc fusion, not shown: a dimerising Fc or GST) EVQLLESGGGLVQPGGSLRLSCAASGFTYGTYAMSWFRQAPGKGLEGVACIDIYGRTSYTDPVKGRFTISQDNSKNTLYLQMNSLRAEDTAVYYCAARDFGYCTASWVHEGFSRYWGQGTLVTVSS
2. QP324 (Fc fusion, not shown: a dimerising Fc or GST) EVQLLESGGGLVQPGGSLRLSCAASGFTYGTYAMSWVRQAPGKGLEWVACIDIYGRTSYTDPVKGRFTISQDNSKNTLYLQMNSLRAEDTAVYYCAARDFGYCTASWVHEGFSRYWGQGTLVTVSS

Output:
[0.182, 0.192]
